- Test system: EpiAirway™ Cell Membrane (mucosal epithelial cell layer)
- procedure-details: Permeation kinetics across the in vitro epithelial tissue model
- particulars: Example 7, length changes; relative to PN159; mean values from multiple repeats
Perm(x)/Perm(159) +/− SEM* strictly under 0.2 means true; at 0.2 or over means false.

Below, 4 substances whose answers are already recorded.
substance	class-name
NH2-KLALKLALKALKAALKLALKLA-amide (H-KLALKLALKALKAALKLALKLA-NH2) [PN420]	false
NH2-KLALKLALKALKAALKLALKLALKAL-amide (H-KLALKLALKALKAALKLALKLALKAL-NH2) [PN422]	true
NH2-KLALKLALKALKAALK-amide (H-KLALKLALKALKAALK-NH2) [PN418]	false
NH2-KLALKLALKALKAALKLALKLALK-amide (H-KLALKLALKALKAALKLALKLALK-NH2) [PN421]	true

Consider the substance NH2-KLALKLALKALKAALKLALK-amide (H-KLALKLALKALKAALKLALK-NH2) [PN419] . Is its Perm(x)/Perm(159) +/− SEM* strictly less than 0.2? false

Param item: NH2-KLALKLALKALKAA-amide (H-KLALKLALKALKAA-NH2) [PN417] true
